Data credit: ChEMBL document CHEMBL1201862

- Tested on: MDA-N
- Protocol description: NCI tumour cell line growth inhibition, 48 h
Calls of active or inactive are those of the source. No stated cut-off is given here; in the data, active = GI50 up to about 1.1 µM and inactive = higher.
# output must be one of active, inactive

A selection of reference data follows.
[
  {
    "Compound": "CS(C)(=O)=Nn1c(=O)n2n(c1=O)C1c3ccccc3C2c2ccccc21",
    "Label class": "inactive"
  },
  {
    "Compound": "Nc1nc2ccc3ccccc3c2[nH]1",
    "Label class": "inactive"
  },
  {
    "Compound": "C=CCOC1OC(CO[Si](C)(C)C(C)(C)C)C(OCc2ccccc2)C(OCc2ccccc2)C1OCc1ccccc1 (stereo unspecified)",
    "Label class": "inactive"
  },
  {
    "Compound": "C=CCO/N=C/c1cc(/N=C(/S)c2ccoc2C)ccc1Cl",
    "Label class": "inactive"
  },
  {
    "Compound": "O=C(OCCN=C1c2ccccc2CCc2ccccc21)c1cc([N+](=O)[O-])cc([N+](=O)[O-])c1",
    "Label class": "inactive"
  },
  {
    "Compound": "Cc1cc(-c2nc3c(F)cccc3s2)ccc1N",
    "Label class": "inactive"
  },
  {
    "Compound": "Cc1cc2c(cc1-c1cc3c(cc1C)C(C(C)C)=C(O)C(=O)/C3=C\\Nc1nc(-c3ccccc3)cs1)/C(=C/Nc1nc(-c3ccccc3)cs1)C(=O)C(O)=C2C(C)C",
    "Label class": "inactive"
  },
  {
    "Compound": "Cc1cc(C)c2c(O)cc(-c3cccc(Cl)c3)nc2n1",
    "Label class": "active"
  },
  {
    "Compound": "CC(C)CCCCCCCCCCCCC(=O)NCC(=O)NC1C(C)OC(Nc2[nH]cnc3ncnc2-3)C(O)C1O (stereo unspecified)",
    "Label class": "active"
  },
  {
    "Compound": "CCCCCCCC/C=C\\CCCCCCC(F)C(=O)O (stereo unspecified)",
    "Label class": "inactive"
  }
]

# next compound below
Ask | Please state the recorded outcome for this compound: "O=C(CCCn1cnc([N+](=O)[O-])n1)NCCn1ccnc1[N+](=O)[O-]"
Reply | inactive
